- System: T-47D breast
- method.notes: NCI tumour cell line growth inhibition, 48 h
Give TGI for every item shown.

Previously resolved entries follow.
>>> val("COC1(OC)CCc2c(sc3ncnc(Nc4cccc(Br)c4)c23)C1")
"65.6 µM"
>>> val("Cc1cc(Br)c(NC(=O)c2c(-c3c(Cl)cccc3Cl)noc2C)c(Br)c1")
"> 100 µM"
>>> val("C=CCC(CCC(C)=O)(C(=O)OCC)C(=O)OCC")
"> 100 µM"

# map each compound to its TGI
1. COC(=O)[C@H](Cc1ccccc1)NC(=O)c1ccc(CNC(=O)/C=C/c2csc(-c3ccccc3)n2)cc1
2. Clc1ccc(C=Nc2ccc(Oc3ccc(Cl)cc3)c(Cl)c2)cc1

1. 7.12 µM
2. 89.8 µM

---

Give GI50 for every item shown.
- Tested on: EKVX NSCLC
- method.notes: NCI tumour cell line growth inhibition, 48 h

>>> val("Cc1cc(Br)c(NC(=O)c2c(-c3c(Cl)cccc3Cl)noc2C)c(Br)c1")
"> 100 µM"

Hi team, please reply with GI50 for each item in this list.
1. CCCCCC(=O)O[C@]1(C(C)=O)CCC2C3CCC4=CC(=O)CC[C@]4(C)C3CC[C@@]21C (some centres undefined)
2. [O]=[V]([OH])([OH])[OH]
3. C=C(C#N)C(=O)OCC(CC)CC.C=C(C#N)C(=O)OCC(CC)CC.CS(C)=O.CS(C)=O.Nc1c(N=Nc2ccc(-c3ccc(N=Nc4cc(S(=O)(=O)[O-])c5ccccc5c4N)cc3)cc2)cc(S(=O)(=O)[O-])c2ccccc12.[Pt+2]

1: 2.91 µM; 2: > 100 µM; 3: 26 µM

State the recorded GI50 for every item in the following list.
1. OCCCCC#Cc1ccccc1C#Cc1cccc(C(F)(F)F)c1
2. COc1ccc(/C=C2\CCC/C(=C\c3ccc(OC)c(OC)c3)C2=O)cc1OC

17.9 µM
14 µM

Provide GI50 for all items below, preserving their order.
1. O=C(O)CN(CCN(CC(=O)O)CC(=O)O)CC(=O)O.[Mn+2]
2. CCCCS(=O)c1sc2nc(-c3cccs3)cc(-c3ccccc3)c2c1N (centres undefined)

["> 100 µM", "9.48 µM"]

Which GI50 is reported for this molecule? `COc1ccccc1Oc1nccc(-c2c(-c3ccc(F)cc3)ncn2C2CCNCC2)n1`
> 25 µM

---

So I've got a bunch of compounds here, and I need their TGI values.
- System: HCT-116 colon
- method.notes: NCI tumour cell line growth inhibition, 48 h

Past entries and their recorded results:
>>> val("COC(=O)c1cc(S(=O)(=O)NC2=NCC(C)NN2)c(S)cc1Cl (stereo not given)")
"> 100 µM"
>>> val("O=C1N[C@@H]2CCCC[C@@H]2C12CCCCC2")
"> 100 µM"
>>> val("O=C(c1ccccc1)[C@H]1Nc2ccc(Cl)cc2[C@H]2CCC[C@@H]12")
"41.5 µM"
>>> val("COc1cc(/C=C/c2cc(/C=C/c3ccc(O)c(OC)c3)n(C(=O)c3ccccc3Br)n2)ccc1O")
"> 100 µM"

Proceeding to the next compound to report its TGI.
Could you tell me which TGI is on file for `COc1ccc(-c2[nH]c3ccc(OC)cc3c2C=C(C#N)C#N)cc1` ?
> 100 µM

---

- Tested on: HCT-116 colon
- method.notes: NCI tumour cell line growth inhibition, 48 h; in the data active means GI50 below about 0.43 µM; inactive means the rest
Hi! Could you answer with just one of these? active, inactive

Below are worked cases with known answers.
>>> category("CN(C)c1ccc(-c2cc(-c3ccc(Nc4nc(Nc5ccc(Cl)cc5)nc(Nc5ccc(Cl)cc5)n4)cc3)nc(N)c2C#N)cc1")
"inactive"
>>> category("COc1ccccc1CNCCN1C(=O)c2ccc3c4c(ccc(c24)C1=O)C(=O)N(CCNCc1ccccc1OC)C3=O")
"active"
>>> category("Fc1ccc(NC(c2ccc(F)cc2)C2CCN(CCCCc3ccccc3)CC2)cc1 (centres undefined)")
"inactive"

Any idea what this test logged for `OCC1CC[N-]CC1.OCC1CC[N-]CC1.[Cl][Pt+2]([Cl])([Cl])[Cl]` ?
inactive
